// provenance: ChEMBL document CHEMBL1137566

TEST_TARGET: Prothrombin (Homo sapiens)
log10 Ki overview
Hi team, quick reminder: these entries are log10 of Ki (µM).

COc1ccc(-n2nc(N)c3c2C(=O)N(c2ccc(-c4ccccc4CN4CC[C@@H](O)C4)cc2)CC3)cc1 0.97
COc1ccc(-n2nc(C(N)=O)c3c2C(=O)N(c2ccc(-c4ccccc4CN4CC[C@@H](O)C4)cc2)CC3)cc1 -0.85
COc1ccc(-n2nc(C(F)(F)F)c3c2C(=O)N(c2ccc(N4CCCCC4=O)cc2)CC3)cc1 0.64
COc1ccc(-n2nc(Cn3nccn3)c3c2C(=O)N(c2ccc(-c4ccccc4CN4CC[C@@H](O)C4)cc2)CC3)cc1 -0.01

Query :: // log10 Ki lookup, key: COc1ccc(-n2nc(-c3nnn[nH]3)c3c2C(=O)N(c2ccc(-c4ccccc4CN4CC[C@@H](O)C4)cc2)CC3)cc1
Result :: 1.08
